- System: FGFR3
- assay context: Compound Concentration (nM):1000;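 further: KINOMEscan scanMAX binding as percent activity remaining versus control; lower means stronger binding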
In this section we review reported Percent Control values for a set of compounds.
Give the value in % but do not write % after it.

Would you please look over these solved cases?
# compound, unit label, Percent Control
data = [
    ("Cl.O=C(Nc1ccc(Oc2ccc3[nH]c(NC(=O)c4ccccc4)nc3c2)cc1)Nc1cc(C(F)(F)F)ccc1F [GW709042A]", "%", 100),
    ("COc1cccc(-c2c[nH]c3c(N/N=C/c4ccncc4)ncnc23)c1 [GW814408X]", "%", 100),
    ("COc1ccc2c(-c3ccnc(Nc4cccc(OC(F)(F)F)c4)n3)cnn2n1 [GW810372X]", "%", 100),
]

For FGFR3, give Percent Control of the listed compound: COc1cc(N2CCN(C(C)C)CC2)ccc1Nc1nc(Nc2ccc(F)cc2C(=O)NC[C@@H](O)CO)c2cc[nH]c2n1 [GSK1392956A] 97

Output reported Percent Control of the compound O=C(Nc1n[nH]c2nc(-c3ccc(O)cc3)c(Br)cc12)C1CC1 on FGFR3. 100

Tell me its Percent Control on FGFR3: CN1CCN(C(=O)c2ccc(NC(=O)Nc3ccc(N(C)c4ccnc(Nc5ccc(CS(C)(=O)=O)cc5)n4)cc3)cc2)CC1.Cl [GW830263A] 100

# return Percent Control of NS(=O)(=O)c1ccc(N/N=C2\C(=O)Nc3ccc(Cl)cc32)cc1 [GW280670X] (system: FGFR3) 100

State recorded Percent Control with FGFR3, entry COc1ccc2[nH]c3c4[nH]c5ccc(OC)cc5c4c4c(c3c2c1)C(=O)NC4=O [GW296115X] , no comment. 93

====

- System: HUNK
- assay context: Compound Concentration (nM):1000
property name: Percent Control (%)
Please reply with the bare figure in % and do not write the unit itself.

Worked cases, Percent Control given:
# compound, Percent Control (%)
data = [
    ("CCS(=O)(=O)c1ccc(OC)c(Nc2ncc(-c3cccc(F)c3)o2)c1 [GW621970X]", 100),
    ("CC1=C(C(=O)Nc2ccc3[nH]ncc3c2)C(c2ccc3ccccc3c2)CC(=O)N1 (stereo not shown) [GSK270822A]", 91),
    ("NS(=O)(=O)c1ccc(N/N=C2\\C(=O)Nc3ccc(-c4cnco4)cc32)cc1 [GW276655]", 61),
    ("COc1cc(C)c(N(C)C(=O)CN(C)C)cc1Nc1nc(Nc2cccc(F)c2C(N)=O)c2cc[nH]c2n1 [GSK2219385]", 100),
    ("CCc1ccc(Oc2nccc(-c3c(-c4ccc(F)cc4)ncn3C3CCNCC3)n2)cc1 [SB-242719]", 86),
    ("Cc1cc(O)cc(C)c1/C=C/c1cncc(C(N)=O)c1 [GW435821X]", 100),
]

Name the recorded Percent Control of the compound listed here: O=C1Nc2ccc(C(=O)c3ccco3)cc2C1=Cc1cc(Cl)c(O)c(Cl)c1 [GW406108X] 46

Give recorded Percent Control. C/C(Nc1ccc(S(N)(=O)=O)cc1)=C1/C(=O)Nc2ccccc21 [GW335962X] 100

====

- Tested on: EGFR(L747-S752del, P753S)
- assay context: Compound Concentration (nM):1000
Quick list: Percent Control per entry.
Numeric only. Scale: %

In the examples that follow, each entry is paired with its recorded Percent Control.
# compound, system, Percent Control, %
records = [
    ("COc1cc(C)c(N(C)C(=O)CN(C)C)cc1Nc1nc(Nc2cccc(F)c2C(N)=O)c2cc[nH]c2n1", "EGFR(L747-S752del, P753S)", 100),
    ("COc1cccc(-n2ncc3c(N/N=C/c4ccncc4)ncnc32)c1 [GW784752X]", "EGFR(L747-S752del, P753S)", 81),
    ("Cl.O=S1CCN(Cc2ccc(-c3ccc4ncnc(Nc5ccc(OCc6ccccc6)c(F)c5)c4c3)o2)CC1 [GW576924A]", "EGFR(L747-S752del, P753S)", 5.9),
    ("COc1cc(/C=N/Nc2ncnc3[nH]ncc23)ccc1O [GW578748X]", "EGFR(L747-S752del, P753S)", 100),
    ("NS(=O)(=O)c1ccc(N/N=C2\\C(=O)Nc3ccc(-c4cnco4)cc32)cc1", "EGFR(L747-S752del, P753S)", 100),
]

Complete the entry with Percent Control for COc1ccc2cc(-c3c(-c4ccncc4)nc(-c4ccc(S(C)(=O)=O)cc4C)n3C)ccc2c1 70

Return value of Percent Control for input CCn1c(-c2nonc2N)nc2c(C#CC(C)(C)O)nc(OCCNC)cc21.Cl , no commentary. 100

Give a short answer stating reported Percent Control for CCS(=O)(=O)c1ccc(OC)c(Nc2ncc(-c3cccc(OC)c3)o2)c1 [GW580509X] . 85

Supply Percent Control value. Item: C[C@@H](Oc1cc(-n2cnc3ccc(OC4CCN(C)CC4)cc32)sc1C(N)=O)c1ccccc1Cl [GSK579289A] 100

Give the value of Percent Control reported for the following: NS(=O)(=O)c1ccc(N/N=C2\C(=O)Nc3ccc(C(=O)NCCc4c[nH]cn4)cc32)cc1 [GW300660X] 100

====

- Test system: PIK3CD
- assay context: Compound Concentration (nM):1000
property name: Percent Control (%)
API: value field is a number in %; no unit string.

Below are worked cases with known answers.
# molecule, property name, result
rows = [
    ("COC(=O)Nc1nc2ccc(Oc3ccc(NC(=O)Nc4cc(C(F)(F)F)ccc4F)cc3)cc2s1.Cl [GW693917A]", "Percent Control", 76),
    ("COc1ccc(COc2ccc(Cc3cnc(N)nc3N)cc2OC)cc1 [GW632580X]", "Percent Control", 100),
    ("CN(C)CCNC(=O)Nc1ccc(N(C)c2ccnc(Nc3ccc(CS(C)(=O)=O)cc3)n2)cc1.Cl [GW830900A]", "Percent Control", 76),
    ("COc1cc(C=NNc2ncnc3c2cnn3-c2ccccc2)ccc1O [GW513184X]", "Percent Control", 76),
]

Fill in reported Percent Control for this entry: C[C@@H](Oc1cc(-n2cnc3ccc(OC4CCN(C)CC4)cc32)sc1C(N)=O)c1ccccc1Cl [GSK579289A] 27

====

- Tested on: CDK7
- assay context: Compound Concentration (nM):1000
property name: Percent Control
Please answer using the number first and the unit second.

Example entries and their recorded answers appear below.
# compound, property name, result
records = [
    ("Cl.O=S1CCN(Cc2ccc(-c3ccc4ncnc(Nc5ccc(OCc6ccccc6)c(F)c5)c4c3)o2)CC1 [GW576924A]", "Percent Control", "100%"),
    ("COc1cccc(-c2c[nH]c3c(N/N=C/c4ccncc4)ncnc23)c1 [GW814408X]", "Percent Control", "2.2%"),
    ("O=C1Nc2ccc(C(=O)c3ccco3)cc2C1=Cc1cc(Cl)c(O)c(Cl)c1 [GW406108X]", "Percent Control", "76%"),
]

Shifting focus to the compound that follows.
In one line, give reported Percent Control of the entry COc1ccc2c(-c3ccnc(Nc4cccc(OC(F)(F)F)c4)n3)cnn2n1 [GW810372X] . 61%

====

- Tested on: TSSK3
- assay context: Compound Concentration (nM):1000
In this section we review reported Percent Control values for a set of compounds.
The figure you give is taken to be in %; do not add the unit.

# compound, unit label, Percent Control
records = [
    ("COc1cccc(-n2ncc3c(N/N=C/c4ccncc4)ncnc32)c1 [GW784752X]", "%", 90),
    ("C[C@@H](Oc1cc(-n2cnc3ccc(OC4CCN(C)CC4)cc32)sc1C(N)=O)c1ccccc1Cl [GSK579289A]", "%", 100),
    ("Cl.c1ccc(Cc2nc3ccc(Nc4ncnc5ccccc45)cc3[nH]2)cc1 [GR269666A]", "%", 100),
]

Fill in reported Percent Control for this entry: Cc1cc(O)cc(C)c1/C=C/c1cncc(C(N)=O)c1 [GW435821X] 100

====

- Tested on: DYRK1A
- assay context: Compound Concentration (nM):1000
property name: Percent Control (%)
Provide only the numeric value, understood in %.

Reference set (3 entries):
# molecule, result
rows = [
    ("Cl.O=C(O[C@H]1CN[C@H](C#Cc2cc3ncnc(Nc4ccc5c(cnn5Cc5ccccc5)c4)c3s2)C1)N1CCOCC1 [GSK200398A]", 76),
    ("COC(=O)Nc1nc2ccc(Oc3ccc(NC(=O)Nc4cc(C(F)(F)F)ccc4F)cc3)cc2s1.Cl [GW693917A]", 82),
    ("COc1ccccc1-c1cc(/C=C2\\C(=O)Nc3ncc(Br)cc32)cc(Br)c1O [GW442130X]", 59),
]

Shifting focus to the molecule that follows.
Supply recorded Percent Control for CN(C)c1cc2c(Nc3ccc4c(cnn4Cc4ccccc4)c3)ncnc2cn1 [GW282974X] here. 93
